Measured values drawn from patent US20140357655A1 for this set.

- Target: human GnRHR (Homo sapiens, UniProt P30968)
- Sequence (P30968 1-328): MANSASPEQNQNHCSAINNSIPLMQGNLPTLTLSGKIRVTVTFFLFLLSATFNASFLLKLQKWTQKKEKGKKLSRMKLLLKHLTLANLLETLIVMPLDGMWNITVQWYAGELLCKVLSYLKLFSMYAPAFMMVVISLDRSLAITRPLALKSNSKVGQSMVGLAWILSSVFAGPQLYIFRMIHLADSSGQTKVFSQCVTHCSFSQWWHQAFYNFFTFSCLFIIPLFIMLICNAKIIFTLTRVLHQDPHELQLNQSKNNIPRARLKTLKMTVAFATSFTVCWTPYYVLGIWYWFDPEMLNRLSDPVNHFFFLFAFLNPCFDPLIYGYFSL
Readout: IC50 (nM)
Give a bare numeral; the unit nM is implied.

Example cases with answers are listed next.
O=C(NCc1ccccc1C(F)F)c1ccc2c(c1)C1(CCS(=O)(=O)CC1)C(C1CC1)N2S(=O)(=O)c1ccc(F)cc1 (single isomer, unassigned) ... 9.5
O=C(Nc1cccc(Cl)c1)c1ccc2c(c1)C1(CCS(=O)(=O)CC1)C(C1CC1)N2S(=O)(=O)c1ccc(F)cc1 (stereo not shown) ... 187
O=C(NCc1ncccc1Cl)c1ccc2c(c1)C1(CCS(=O)(=O)CC1)C(C1CC1)N2S(=O)(=O)c1ccc(F)cc1 (single isomer, unassigned) ... 20

Prompt: Look up IC50 with human GnRHR (Homo sapiens, UniProt P30968) for this compound: O=C(Nc1ccccc1Cl)c1ccc2c(c1)C1(CCS(=O)(=O)CC1)C(C1CC1)N2S(=O)(=O)c1ccc(F)cc1 (stereo not shown)
Completion: 154

Prompt: Repeat for the following compound: N#Cc1ccc(S(=O)(=O)N2c3ccc(C(=O)Nc4ccccc4F)cc3C3(CCS(=O)(=O)CC3)C2C2CC2)cc1 (stereo not shown)
Completion: 30

Prompt: Same question, O=C(NCc1ccccc1Cl)c1ccc2c(c1)C1(CCS(=O)(=O)CC1)C(C1CC1)N2S(=O)(=O)c1ccc(F)cc1 (single isomer, unassigned) this time
Completion: 11

Prompt: One more compound: O=C(NCc1ccccc1Cl)c1ccc2c(c1)C1(CC[S+]([O-])CC1)C(C1CC1)N2S(=O)(=O)c1ccc(F)cc1 (single isomer, unassigned)
Completion: 8.5

###

// reported IC50 per item
- Target: human GnRH receptor (Homo sapiens, UniProt P30968)
- Test protocol: IP-One HTRF assay with buserelin (at EC80) stimulation
- Condition set: CHO cells stably expressing human GnRH receptor, read-out: Potency in IP-One HTRF assay, given as IC50

NS(=O)(=O)c1cccc(NC(=O)c2ccc3c(c2)C2(CCS(=O)(=O)CC2)C(C2CC2)N3S(=O)(=O)c2ccc(F)cc2)c1 (stereo not drawn) [Example 30] ... 245 nM
COc1cccc(S(=O)(=O)N2c3ccc(C(=O)Nc4cccc(S(=O)(=O)N=C(N(C)C)N(C)C)c4)cc3C3(CCS(=O)(=O)CC3)C2C2CC2)c1 (single isomer, unassigned) [Example 62.2] ... 4.8 nM
COC(=O)c1cccc(NC(=O)c2ccc3c(c2)C2(CCS(=O)(=O)CC2)C(C2CC2)N3S(=O)(=O)c2cccc(OC(F)F)c2)c1 (single isomer, unassigned) [Example 89.2] ... > 20000 nM

Prompt: Item under review: CC1N(S(=O)(=O)c2ccc(F)cc2)c2ccc(C(=O)Nc3cccc(S(=O)(=O)N(C)C)c3)cc2C12CCOCC2 (stereo not drawn) . Reported IC50?
Completion: 378 nM

Prompt: Would you mind doing CC1N(S(=O)(=O)c2ccc(F)cc2)c2ccc(C(=O)NCc3ncccc3Cl)cc2C12CCOCC2 (single isomer, unassigned) [Example 1.1] as well?
Completion: 146 nM

Prompt: Here is the next compound: CC1N(S(=O)(=O)c2ccc(F)cc2)c2ccc(C(=O)NCc3ncccc3C(F)(F)F)cc2C12CCOCC2 (stereo not drawn) [Example 3]
Completion: 584 nM

Prompt: Try COC(=O)c1cccc(NC(=O)c2ccc3c(c2)C2(CCS(=O)(=O)CC2)C(C2CC2)N3S(=O)(=O)c2cccc(OC)c2)c1 (stereo not drawn) next.
Completion: 55 nM

Prompt: Please give the result for N#Cc1cccc(S(=O)(=O)N2c3ccc(C(=O)Nc4ccon4)cc3C3(CCS(=O)(=O)CC3)C2C2CC2)c1 (single isomer, unassigned) [Example 80.1] too.
Completion: 315 nM

Prompt: Same read-out for COc1cccc(S(=O)(=O)N2c3ccc(C(=O)NCc4ncccc4C)cc3C3(CCS(=O)(=O)CC3)C2C2CC2)c1 (stereo not drawn) [Example 45] ?
Completion: 299 nM

Prompt: Try the compound N#Cc1cccc(S(=O)(=O)N2c3ccc(C(=O)NCc4ncccc4C(F)(F)F)cc3C3(CCS(=O)(=O)CC3)C2C2CC2)c1 (single isomer, unassigned) [Example 79.2]
Completion: 1020 nM

Prompt: Note, next up: C=CCC1N(S(=O)(=O)c2cccc(C(=O)OC)c2)c2ccc(C(=O)NCc3ccccc3Cl)cc2C12CCS(=O)(=O)CC2 (stereo not drawn)
Completion: 91 nM

Prompt: Next compound up: COc1cccc(S(=O)(=O)N2c3ccc(C(=O)Nc4cccc(S(N)(=O)=O)c4)cc3C3(CCS(=O)(=O)CC3)C2C2CC2)c1 (single isomer, unassigned) [Example 42.2]
Completion: 99 nM
